method.summary: Bioavailability and pharmacokinetic profile following intravenous and oral administration
Type: in vivo, Male Sprague Dawley Rats
condition.details: male, Sprague Dawley, rat, plasma, iv, 5 mg/kg, IV (5 mg/kg); Mean
Protocol: Method: For IV infusion over 10 minutes the compound of Example 3.4 was dissolved in 20% DMSO, 30% PEG400 and 50% Water. For oral (PO) dosing AVX62738 was dissolved in 0.5% benzyl alcohol and 0.4% Tween 80 and 99.1% 0.5% hydroxypropylmethylcellulose. Compounds were dosed IV and then after a one week washout, orally in the same rats. (Body weight: Rat 1: 254.7 g; Rat 2: 253.4 g). Ex-vivo plasma samples were assayed for AVX62738 using an LC-ms method of Lower limit of quantitation. (LLOQ)=2.5 ng/mL.
measured.property: Cmax (ng/mL)
State the answer as a number, implicitly in ng/mL.

Q. Consider the molecule CN1CCN(c2cc(N3CCN(C)S3(=O)=O)c3nc(C(=O)NCc4ccc(F)cc4)c(O)c(=O)n3c2)CC1 and give its measured Cmax.
A. 3030

====

method.summary: Bioavailability and pharmacokinetic profile following intravenous and oral administration
Assay type: in vivo, Male Sprague Dawley Rats
condition.details: male, Sprague Dawley, rat, plasma, po, 10 mg/kg, PO 10 mg/kg; Rat 1; 8 hr; not kept for calculation
measured.property: concentration at 8 h (ng/mL)
State the answer as a number, implicitly in ng/mL.

Q. Consider the compound CN1CCN(c2cc(N3CCN(C)S3(=O)=O)c3nc(C(=O)NCc4ccc(F)cc4)c(O)c(=O)n3c2)CC1 [Example 3.4] and give its measured concentration at 8 h.
A. 148

====

method.summary: Bioavailability and pharmacokinetic profile following intravenous and oral administration
Format: in vivo, Male Sprague Dawley Rats
condition.details: male, Sprague Dawley, rat, plasma, iv, 5 mg/kg, IV (5 mg/kg); animal 701
measured.property: AUC(0-t) (ng·h/mL)
State the answer as a number, implicitly in ng·h/mL.

Q. Consider the compound CN1CCN(c2cc(N3CCN(C)S3(=O)=O)c3nc(C(=O)NCc4ccc(F)cc4)c(O)c(=O)n3c2)CC1 and give its measured AUC(0-t).
A. 1860

====

method.summary: Bioavailability and pharmacokinetic profile following intravenous and oral administration
Assay type: in vivo, Male Sprague Dawley Rats
condition.details: male, Sprague Dawley, rat, plasma, po, 10 mg/kg, PO (10 mg/kg); Mean
measured.property: AUC(0-inf) (ng·h/mL)
State the answer as a number, implicitly in ng·h/mL.

Q. Consider the compound CN1CCN(c2cc(N3CCN(C)S3(=O)=O)c3nc(C(=O)NCc4ccc(F)cc4)c(O)c(=O)n3c2)CC1 and give its measured AUC(0-inf).
A. 110

====

method.summary: Bioavailability and pharmacokinetic profile following intravenous and oral administration
Type: in vivo, Male Sprague Dawley Rats
condition.details: male, Sprague Dawley, rat, plasma, po, 10 mg/kg, PO (10 mg/kg); animal 801
measured.property: AUC(0-t) (ng·h/mL)
State the answer as a number, implicitly in ng·h/mL.

Q. Consider the molecule CN1CCN(c2cc(N3CCN(C)S3(=O)=O)c3nc(C(=O)NCc4ccc(F)cc4)c(O)c(=O)n3c2)CC1 and give its measured AUC(0-t).
A. 82.8

====

method.summary: Bioavailability and pharmacokinetic profile following intravenous and oral administration
Format: in vivo, Male Sprague Dawley Rats
condition.details: male, Sprague Dawley, rat, plasma, iv, 5 mg/kg, IV 5 mg/kg; Rat 1; 8 hr
measured.property: concentration at 8 h (ng/mL)
State the answer as a number, implicitly in ng/mL.

Q. Consider the compound CN1CCN(c2cc(N3CCN(C)S3(=O)=O)c3nc(C(=O)NCc4ccc(F)cc4)c(O)c(=O)n3c2)CC1 and give its measured concentration at 8 h.
A. 2.64
